Measured values drawn from ChEMBL document CHEMBL4482314 for this set.

study system: Membrane-bound ghrelin O-acyltransferase MBOAT4 (Mus musculus) (UniProt P0C7A3)
experiment notes: Inhibition of His10-tagged mouse GOAT expressed in baculovirus infected Sf9 cells assessed as reduction in specific acyl transfer from tritiated-octanoyl CoA to recombinant His-tagged pro-ghrelin
Active and inactive are the calls of the source. No cut-off for these calls is given here.
Possible outcomes: label 1 (active), label 0 (inactive)

CCCCCCC[S+]([O-])CC[C@H](NC(=O)OCc1ccccc1)C(=O)OC (stereo partly drawn)	label 1
CCCCCCCC(C)(O)/C=C/[C@H](NC(=O)C(C)(C)CO)C(=O)OC (stereo partly drawn)	label 0
CCCCCCCC(C)(O)/C=C/CNC(=O)OCc1ccccc1 (stereo not drawn)	label 1

----------
study system: Membrane-bound ghrelin O-acyltransferase MBOAT4 (Mus musculus) (UniProt P0C7A3)
Sequence (whole entry): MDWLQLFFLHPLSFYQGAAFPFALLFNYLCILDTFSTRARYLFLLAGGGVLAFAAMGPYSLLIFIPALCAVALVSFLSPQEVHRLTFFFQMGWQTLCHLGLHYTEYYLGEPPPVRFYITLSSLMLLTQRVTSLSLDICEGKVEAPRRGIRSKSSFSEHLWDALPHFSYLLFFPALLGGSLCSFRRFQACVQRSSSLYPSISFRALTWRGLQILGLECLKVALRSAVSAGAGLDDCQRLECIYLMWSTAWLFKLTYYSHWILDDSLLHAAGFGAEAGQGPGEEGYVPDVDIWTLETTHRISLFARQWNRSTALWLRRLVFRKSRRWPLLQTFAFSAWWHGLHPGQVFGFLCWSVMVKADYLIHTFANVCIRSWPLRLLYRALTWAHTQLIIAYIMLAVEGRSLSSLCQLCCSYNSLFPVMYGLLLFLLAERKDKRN
experiment notes: Inhibition of His10-tagged mouse GOAT expressed in baculovirus infected Sf9 cells assessed as reduction in specific acyl transfer from tritiated-octanoyl CoA to recombinant His-tagged pro-ghrelin
Active and inactive are the calls of the source. No cut-off for these calls is given here. Where a SMILES comes first, the peptide text is derived from it. [ ]: non-standard residue; d: D form. The star is where a group is joined. Octanoyl = CCCCCCCC(=O)*; Dap = NC[C@H](N)C(=O)O
Possible outcomes: y (active), n (inactive)

CCC(C)(O)/C=C/[C@H](NC(=O)OCc1ccccc1)C(=O)OC (stereo partly drawn)	n
CCCCCCCC(C)(O)/C=C/[C@H](NC(=O)OCc1ccccc1)C(=O)OC (stereo partly drawn)	y
CCCCCCCC(C)(O)/C=C/[C@H](NC(=O)OCc1ccccc1)C(=O)NC(C)C (stereo partly drawn)	y
CCCCCCCC(=O)NC[C@H](NC(=O)[C@H](CO)NC(=O)CN)C(=O)N[C@@H](Cc1ccccc1)C(=O)N[C@@H](CC(C)C)C(N)=O (H-GS[Dap](Octanoyl)FL-NH2)	y
CCCCCCCC(C)(O)C/C=C(/NC(=O)OCc1ccccc1)C(=O)NC(C)C (stereo not drawn)	y
CCCCCCCC(C)(O)/C=C/[C@H](NC(=O)C(C)(C)CO)C(=O)N[C@@H](Cc1ccccc1)C(=O)N[C@@H](CC(C)C)C(N)=O (stereo partly drawn)	y
CCCCCCCC(=O)NC[C@H](NC(=O)OCc1ccccc1)C(=O)OC	n
CCCCCCCC(C)(O)/C=C/[C@@H](NC(=O)OCc1ccccc1)C(=O)OC (stereo partly drawn)	y
